Origin of the recorded values: paper PMC5540273

System: CDKL5;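 note: KINOMEscan kinase panel screen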
Conditions: concentration: 1 μM, replicates: in singlicate; n = 1
testReadout: %Inh (%)
API: value field is a number in %; no unit string.

Query: Field request: %Inh | item: `CCc1ccc(-c2ccc3c(c2)-c2c(cnn2C)S(=O)(=O)N3C)cc1`
Result: 0

Query: Field request: %Inh | item: `COc1ccc(Nc2nccc(NCCNC(=O)c3cc4ccccc4s3)n2)cc1`
Result: 0

Query: Field request: %Inh | item: O=C(NC1CCN(c2ccnc(Nc3ccc(F)cc3)n2)C1)c1cc2ccccc2s1 (centres unmarked)
Result: 5

Query: Field request: %Inh | item: `CN1CCN(CCCNc2nccc(-c3c(-c4ccc(F)cc4)nn4cc(C(F)(F)F)ccc34)n2)CC1`
Result: 0

Query: Field request: %Inh | item: `Clc1ccc(-c2nn3ncccc3c2-c2ccnc(Nc3ccc4c(c3)OCCO4)n2)cc1`
Result: 0

Query: Field request: %Inh | item: `COc1cc(Nc2nccc(-c3c(-c4cccc(NC(=O)c5c(F)cccc5F)c4)nn4ccccc34)n2)cc(OC)c1OC`
Result: 2

Query: Field request: %Inh | item: `COc1cc2c(cc1OCCN1CCNCC1)ncc1c3ccc(C#N)cc3[nH]c21`
Result: 0

Query: Field request: %Inh | item: `CCCCc1nn2ncccc2c1-c1ccnc(Nc2ccc(N3CCN(C)CC3)cc2)n1`
Result: 0
